Data origin: patent US20210244712A1

Test system: HCC38
Assay: Cell proliferation assay
Assay type: cell-based
Conditions: Homo sapiens, 72 hrs, read-out: Cell Viability: IC50
pIC50: −log10 of the molar value.
MEASURED PARAMETER: pIC50

{"MOL SMILES": "Cc1ccccc1C(=O)Nc1nc(NC(=O)c2ccccc2C)n(-c2ccccc2)n1", "MEASURED PARAMETER": "pIC50", "RESULT VALUE": 5.24}

----------
Test system: OVSAHO
Assay: Cell proliferation assay
Assay type: cell-based
Settings: Homo sapiens, 72 hrs, read-out: Cell Viability: IC50

{"COMPOUND": "Cc1ccccc1C(=O)Nc1nc(NC(=O)c2ccccc2C)n(-c2ccccc2)n1 [Compound F]", "IC50 (µM)": 6.53}

----------
Test system: Calu-6
Test: Cell proliferation assay
Type: cell-based
Conditions: Homo sapiens, 72 hrs, read-out: Cell Viability: IC50
pIC50: −log10 of the molar value.
MEASURED PARAMETER: pIC50

{"MOL SMILES": "Cc1ccccc1C(=O)Nc1nc(NC(=O)c2ccccc2C)n(-c2ccccc2)n1", "SYSTEM TESTED": "Calu-6", "RESULT VALUE": 5.72}

----------
System: ES-2
Experiment: Cell proliferation assay
Type: cell-based
Conditions: Homo sapiens; Ovarian ES-2; overexpression of Cyclin D, loss of p16 (mutant p53)

{"MOL SMILES": "Cc1ccccc1C(=O)Nc1nc(NC(=O)c2ccccc2C)n(-c2ccc(OC(F)(F)F)cc2)n1", "U": "nM", "IC50": 57}

----------
Tested on: T-47D
Assay: Cell proliferation assay
Format: cell-based
Details: Homo sapiens, T47D, 72 hrs, read-out: Cell Viability: IC50
MEASURED PARAMETER: IC50 (µM)

{"MOL SMILES": "Cc1ccccc1C(=O)Nc1nc(NC(=O)c2ccccc2C)n(-c2ccccc2)n1", "SYSTEM TESTED": "T-47D", "U": "µM", "RESULT VALUE": 7.37}

----------
Tested on: SW626
Assay: Cell proliferation assay
Type: cell-based
Conditions: Homo sapiens; Table 7a; Ovarian (SW626)

{"MOLECULE": "Cc1ccccc1C(=O)Nc1nc(NC(=O)c2ccccc2C)n(-c2ccc(OC(F)(F)F)cc2)n1 [Compound 42]", "U": "nM", "EC50": 334}

----------
Test system: NCl-H292
Test: Cell proliferation assay
Format: cell-based
Details: 72 hrs, read-out: Cell Viability: IC50

{"MOL SMILES": "Cc1ccccc1C(=O)Nc1nc(NC(=O)c2ccccc2C)n(-c2ccccc2)n1", "IC50 [nM]": 950}

----------
Test system: LOVO
Test: Cell proliferation assay
Format: cell-based
Settings: Homo sapiens, 72 hrs, read-out: Cell Viability: IC50
pIC50: −log10 of the molar value.

{"MOL SMILES": "Cc1ccccc1C(=O)Nc1nc(NC(=O)c2ccccc2C)n(-c2ccccc2)n1", "SYSTEM TESTED": "LOVO", "pIC50": 5.25}

----------
Reported pIC50 by item:
System: TOV-112D
Test: Cell proliferation assay
Format: cell-based
Settings: Homo sapiens; Ovarian TOV112D; loss of p16 (mutant p53); read-out: Proliferation IC50
pIC50: −log10 of the molar value.

{"MOL SMILES": "Cc1ccccc1C(=O)Nc1nc(NC(=O)c2ccccc2C)n(-c2ccc(OC(F)(F)F)cc2)n1", "pIC50": 6.99}
{"MOL SMILES": "Cc1ccccc1C(=O)Nc1nc(NC(=O)c2ccccc2C)n(-c2ccccc2)n1", "pIC50": 6.07}
